Data provenance: patent US12600709B2

Exercise: state measured EC50 for each of the compounds provided.
# MEASURED_TARGET: human somatostatin receptor subtype 5 (Homo sapiens, UniProt P35346)
# Construct: expressed in transfected cells
# Sequence (P35346 whole entry): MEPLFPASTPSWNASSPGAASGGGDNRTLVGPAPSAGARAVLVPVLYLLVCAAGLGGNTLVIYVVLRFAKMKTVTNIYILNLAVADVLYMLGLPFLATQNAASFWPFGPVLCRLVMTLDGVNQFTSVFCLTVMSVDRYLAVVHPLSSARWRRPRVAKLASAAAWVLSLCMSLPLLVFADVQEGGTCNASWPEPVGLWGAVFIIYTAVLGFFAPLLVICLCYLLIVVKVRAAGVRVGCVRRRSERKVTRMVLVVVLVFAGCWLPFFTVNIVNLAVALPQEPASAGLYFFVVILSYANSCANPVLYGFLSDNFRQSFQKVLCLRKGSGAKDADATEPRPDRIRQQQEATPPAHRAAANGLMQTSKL
# ASSAY_OVERVIEW: cAMP assay for SST5R (inhibition of cAMP in CHO-K1 cells)
# Type: cell-based
# CONDITION: Table A; inhibition of cAMP via human SST5 receptor; read-out: SST5 potency

INPUT: Find the recorded EC50 belonging to "Cc1ncc(C(=O)N[C@@H](C)C2CC2)c(N2CC[C@](C)(N)C2)c1-c1cccc(F)c1" and report it.
OUTPUT: < 10 nM

INPUT: For the compound "Cc1cccc2[nH]c(-c3cncc(C(=O)Nc4ccccc4)c3N3CC[C@](C)(N)C3)nc12" , what EC50 is on record?
OUTPUT: < 10 nM

INPUT: Report EC50 for "C[C@H](NC(=O)c1ncc(C(N)=O)c(-c2cc(F)cc(F)c2)c1N1CC[C@](C)(N)C1)C1CC1" please.
OUTPUT: > 1000 nM

INPUT: # lookup: EC50 of "N#Cc1ncc(C(=O)NC23CC(C2)C3)c(N2CC[C@H](N)C2)c1-c1cc(F)cc(Cl)c1"
OUTPUT: < 10 nM

INPUT: Entry "C[C@]1(N)CCN(c2c(C(=O)NC3CCC(F)(F)CC3)cnc(C3CC3)c2-c2cc(F)cc(F)c2)C1" : reported EC50 = ?
OUTPUT: < 10 nM

INPUT: What value of EC50 has been recorded for this entry: Cc1ncc(C(=O)NC(CO)C2CC2)c(N2CC[C@](C)(N)C2)c1-c1cc(F)cc(F)c1 (some centres unmarked)
OUTPUT: 10 to 100 nM

INPUT: What EC50 value was documented for this compound, "COc1ncc(C(=O)NC2CCC(F)(F)CC2)c(N2CC[C@H](N)C2)c1-c1cc(F)cc(F)c1" ?
OUTPUT: < 10 nM

INPUT: Name the reported EC50 value associated with the compound "COc1cc(C#N)cc(-c2cncc(C(=O)N[C@@H](C)C3CC3)c2N2CC[C@](C)(N)C2)c1"
OUTPUT: < 10 nM

###

# MEASURED_TARGET: human somatostatin receptor subtype 2 (Homo sapiens, UniProt P30874)
# Sequence (P30874 whole entry): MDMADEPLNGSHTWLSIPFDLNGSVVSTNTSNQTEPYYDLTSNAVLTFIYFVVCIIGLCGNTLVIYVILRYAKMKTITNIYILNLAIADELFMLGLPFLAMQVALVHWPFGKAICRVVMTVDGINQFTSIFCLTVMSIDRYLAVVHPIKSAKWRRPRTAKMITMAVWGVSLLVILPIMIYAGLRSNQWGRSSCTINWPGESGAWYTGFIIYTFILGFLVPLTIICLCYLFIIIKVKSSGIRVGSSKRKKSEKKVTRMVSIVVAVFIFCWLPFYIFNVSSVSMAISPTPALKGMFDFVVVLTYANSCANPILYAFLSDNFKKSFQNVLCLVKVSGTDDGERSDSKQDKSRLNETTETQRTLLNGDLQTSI
# ASSAY_OVERVIEW: cAMP assay for SST2R (inhibition of cAMP in CHO-K1 cells)
# CONDITION: Table B; inhibition of cAMP via human SST2 receptor; read-out: SST2 potency
For each entry below, report its EC50 value.

INPUT: Form field: reported EC50 of "C[C@]1(N)CCN(c2c(C(=O)NCc3ccon3)cnc(C#N)c2-c2cc(F)cc(Cl)c2)C1"
OUTPUT: 0.1 to 1 µM

INPUT: Returns the measured EC50 for the input molecule. Input: "CCOc1ncc(C(=O)N[C@@H](C)C2CC2)c(N2CC[C@](C)(N)C2)c1-c1cc(F)cc(F)c1"
OUTPUT: 0.1 to 1 µM

INPUT: Query (molecule): "C[C@H](NC(=O)c1cnc(C#N)c(-c2cc(F)cc(OC(F)F)c2)c1N1CC[C@](C)(N)C1)C(F)(F)F" ; field requested: EC50
OUTPUT: 0.01 to 0.1 µM

INPUT: Param item = "C[C@H](NC(=O)c1cnc(OCC2COC2)c(-c2cc(F)cc(F)c2)c1N1CC[C@](C)(N)C1)C1CC1" ; retrieve measured EC50.
OUTPUT: > 1 µM

INPUT: For the molecule "N#Cc1ncc(C(=O)NC2CCCCCC2)c(N2CC[C@H](N)C2)c1-c1cc(F)cc(F)c1" , what EC50 is on record?
OUTPUT: > 1 µM

INPUT: Please report the recorded EC50 for "CCC(CC)NC(=O)c1cnc(C#N)c(-c2cc(F)cc(F)c2)c1N1CC[C@H](N)C1" .
OUTPUT: 0.1 to 1 µM

INPUT: Data request, read-out EC50, for "Cc1cc(F)cc(-c2cncc(C(=O)NC(C3CC3)C3CC3)c2N2CC[C@](C)(N)C2)c1"
OUTPUT: 0.1 to 1 µM

INPUT: Given "CCC(CC)NC(=O)c1cnc(C#N)c(-c2cc(F)cc(F)c2)c1N1CC[C@](C)(N)C1" , state its recorded EC50.
OUTPUT: > 1 µM

INPUT: What value of EC50 has been reported for the following molecule? "COc1cc(-c2c(C#N)ncc(C(=O)NCC(C)C)c2N2CC[C@](C)(N)C2)ccn1"
OUTPUT: > 1 µM

INPUT: Quick one: EC50 for CC(N)C1CN(c2c(C(=O)NC34CC(C3)C4)cnc(C#N)c2-c2cc(F)cc(F)c2)C1 (centres unmarked) ?
OUTPUT: > 1 µM

INPUT: Could you share which EC50 value was measured for "Cc1ncc(C(=O)N[C@@H](C)C(F)(F)F)c(N2CC[C@](C)(N)C2)c1-c1ccc(F)c(Cl)c1" ?
OUTPUT: 0.01 to 0.1 µM

INPUT: Can you look up the measured EC50 of "CC(C)CNC(=O)c1cnc(C#N)c(-c2ccnc(C(F)(F)F)c2)c1N1CC[C@](C)(N)C1" for me?
OUTPUT: > 1 µM

INPUT: Consider the molecule shown here: "Cc1cccc2[nH]c(-c3cncc(C(=O)N4C5CC6CC(C5)CC4C6)c3N3CC[C@](C)(N)C3)nc12" What is its recorded EC50?
OUTPUT: 0.1 to 1 µM

INPUT: Which EC50 value is on record for "COc1ncc(C(=O)NC2CCC(F)(F)CC2)c(N2CC[C@H](N)C2)c1-c1cc(F)cc(Cl)c1" ?
OUTPUT: 0.1 to 1 µM

INPUT: Bench note: what EC50 did "CCC(CC)NC(=O)c1cncc(-c2cc(F)cc(F)c2)c1N1CC[C@](C)(N)C1" show?
OUTPUT: 0.1 to 1 µM

INPUT: Return reported EC50; argument: "C[C@]1(N)CCN(c2c(C(=O)NCC(F)(F)F)cnc(C#N)c2-c2cc(F)cc(F)c2)C1"
OUTPUT: 0.1 to 1 µM

INPUT: Which EC50 is listed for CC(NC(=O)c1cnc(C#N)c(-c2cc(F)cc(F)c2)c1N1CC[C@H](N)C1)C(F)(F)F (some centres unmarked) ?
OUTPUT: 0.1 to 1 µM

INPUT: Look up EC50: "Cc1ncc(C(=O)N[C@@H](C)C2CC2)c(N2CC[C@](C)(N)C2)c1-c1ccnc(C(F)(F)F)c1"
OUTPUT: > 1 µM

INPUT: Give the measured EC50 of "Cc1cccc2[nH]c(-c3cncc(C(=O)NCC(F)(F)F)c3N3CC[C@](C)(N)C3)nc12" .
OUTPUT: 0.1 to 1 µM

INPUT: Which EC50 is reported for this molecule? "C[C@H](NC(=O)c1cnc(C(F)(F)F)c(-c2cc(F)cc(F)c2)c1N1CC[C@H](N)C1)C1CC1"
OUTPUT: 0.1 to 1 µM

INPUT: Fill in the blank: the reported EC50 of "Cc1cc(C)cc(NC(=O)c2cncc(-c3ccnc(C)c3)c2N2CC[C@](C)(N)C2)c1" is ____.
OUTPUT: 0.01 to 0.1 µM

INPUT: Which value of EC50 has been reported for "Cc1cc(F)cc(-c2cncc(C(=O)NC3CCC(F)(F)CC3)c2N2CC[C@](C)(N)C2)c1" in the records?
OUTPUT: 0.1 to 1 µM

INPUT: Can you look up the measured EC50 of "COc1ncc(C(=O)N[C@@H](C)C2CC2)c(N2CC[C@](C)(N)C2)c1-c1ccc(Cl)c(F)c1" for me?
OUTPUT: > 1 µM

INPUT: Which value of EC50 has been reported for "COc1ncc(C(=O)N[C@@H](C)C(F)(F)F)c(N2CC[C@](C)(N)C2)c1-c1cccc2c1cnn2C" in the records?
OUTPUT: > 1 µM

INPUT: What value of measured EC50 is listed for "COc1cc(-c2c(C#N)ncc(C(=O)NC3CCCC3)c2N2CC[C@](C)(N)C2)ccn1" ?
OUTPUT: > 1 µM

INPUT: Which EC50 value is on record for "COC[C@@]1(N)CCN(c2c(C(=O)N[C@@H](C)C3CC3)cnc(C#N)c2-c2cc(F)cc(F)c2)C1" ?
OUTPUT: > 1 µM

INPUT: What does the record list as EC50 for "C[C@]1(N)CCN(c2c(C(=O)NC3CC(F)(F)C3)cncc2-c2cc(F)cc(F)c2)C1" ?
OUTPUT: 0.1 to 1 µM

INPUT: What value of EC50 has been recorded for this entry: "Cc1cccc2[nH]c(-c3cncc(C(=O)N4CCC[C@H]4C(F)(F)F)c3N3CC[C@](C)(N)C3)nc12"
OUTPUT: 0.1 to 1 µM

INPUT: Value lookup for EC50; key = "COc1ncc(C(=O)N[C@@H](C)C2CC2)c(N2CC[C@](C)(N)C2)c1-c1cc(F)cc(C(F)(F)F)c1"
OUTPUT: 0.1 to 1 µM

INPUT: Which EC50 reading was recorded for the molecule "N[C@H]1CCN(c2c(C(=O)NC3CCCCC3)cnc(C(F)(F)F)c2-c2cc(F)cc(F)c2)C1" ?
OUTPUT: 0.1 to 1 µM

INPUT: Look up EC50 for this molecule: "C[C@H](NC(=O)c1cnc(C#N)c(-c2cc(F)cc(Cl)c2)c1N1CC[C@](C)(N)C1)c1ccccn1"
OUTPUT: > 1 µM

INPUT: Would you mind telling me what EC50 value was observed for "C[C@]1(N)CCN(c2c(C(=O)NCc3ncccn3)cnc(C#N)c2-c2cc(F)cc(F)c2)C1" ?
OUTPUT: > 1 µM
